Value source: BigSolDB 2.1

- testConditions: in ethanol, 328.95 K
assayReadout: solubility (mole fraction)

smilesText	assayReadout	valueObserved
O=C(O)c1ccc(C(=O)O)o1	solubility (mole fraction)	0.0062

----------
- testConditions: in methanol, 326.85 K

smilesText	solubility (mole fraction)
O=C(O)c1ccc(C(=O)O)o1	0.00758
